Taken from ChEMBL document CHEMBL4138253.

# experimental_protocol: Drug level in C57BL/6 mouse liver at 2 mg/kg, po administered as single cassette dose via gavage measured at 0.5 hrs post dose by LC-MS/MS analysis
# Assay type: ADME, organism-based
# measurement_setup: in vivo
measured_attribute: log10 Drug uptake (log10 of the value in nmol/kg)
Plainly stated, the numbers are log10 of Drug uptake given in nmol/kg.

>  <compound>
CC[C@H]1[C@@H](O)[C@@H]2[C@H](CC[C@]3(C)[C@@H]([C@H](C)CCNC(=O)C(=O)O)CC[C@@H]23)[C@@]2(C)CC[C@@H](O)C[C@@H]12

>  <log10 Drug uptake>
2.44

$$$$

stdin: Return reported log10 Drug uptake; argument: CC[C@H]1[C@@H](O)[C@@H]2[C@H](CC[C@]3(C)[C@@H]([C@H](C)CCc4nnn[nH]4)CC[C@@H]23)[C@@]2(C)CC[C@@H](O)C[C@@H]12
stdout: 3.76

stdin: I'd like to know its log10 Drug uptake. The compound in question is CC[C@H]1[C@@H](O)[C@@H]2[C@H](CC[C@]3(C)[C@@H]([C@H](C)CCC(=O)NS(C)(=O)=O)CC[C@@H]23)[C@@]2(C)CC[C@@H](O)C[C@@H]12
stdout: 3.86

stdin: What value of log10 Drug uptake has been reported for the following compound? CC[C@H]1[C@@H](O)[C@@H]2[C@H](CC[C@]3(C)[C@@H]([C@H](C)CCc4cc(O)no4)CC[C@@H]23)[C@@]2(C)CC[C@@H](O)C[C@@H]12
stdout: 3.28

stdin: Consider the compound CC[C@H]1[C@@H](O)[C@@H]2[C@H](CC[C@]3(C)[C@@H]([C@H](C)CCC(=O)O)CC[C@@H]23)[C@@]2(C)CC[C@@H](O)C[C@@H]12 [OBETICHOLIC ACID] and give its measured log10 Drug uptake.
stdout: 2.85

----------
Measured Efficacy by item
# assayed_system: Bile acid receptor (Homo sapiens)
# experimental_protocol: Agonist activity at recombinant human GST-tagged FXR LBD (193 to 472 residues) expressed in baculovirus-infected insect cells assessed as recruitment of biotinylated SRC1 peptide measured after 1 hr by Alphascreen assay relative to CDCA
Please respond with the number in % and leave the unit unwritten.

Consider the following illustrative entries.
>  <smi>
CC[C@H]1[C@@H](O)[C@@H]2[C@H](CC[C@]3(C)[C@@H]([C@H](C)CCC(=O)S)CC[C@@H]23)[C@@]2(C)CC[C@@H](O)C[C@@H]12

>  <value_observed>
226

$$$$
>  <smi>
CC[C@H]1[C@@H](O)[C@@H]2[C@H](CC[C@]3(C)[C@@H]([C@H](C)CCC(N)=O)CC[C@@H]23)[C@@]2(C)CC[C@@H](O)C[C@@H]12

>  <value_observed>
142

$$$$
>  <smi>
CC[C@H]1[C@@H](O)[C@@H]2[C@H](CC[C@]3(C)[C@@H]([C@H](C)CCC(=O)O)CC[C@@H]23)[C@@]2(C)CC[C@@H](OC)C[C@@H]12

>  <value_observed>
108

$$$$
>  <smi>
CC[C@H]1[C@@H](O)[C@@H]2[C@H](CC[C@]3(C)[C@@H]([C@H](C)CCCNC(=O)N4CC[C@H](O)C4)CC[C@@H]23)[C@@]2(C)CC[C@@H](O)C[C@@H]12

>  <value_observed>
129

$$$$
>  <smi>
CC[C@H]1[C@@H](O)[C@@H]2[C@H](CC[C@]3(C)[C@@H]([C@H](C)CCC(=O)O)CC[C@@H]23)[C@@]2(C)CCC(F)(F)C[C@@H]12

>  <value_observed>
109

$$$$

stdin: Give Efficacy (Bile acid receptor (Homo sapiens)) of the following compound: CC[C@H]1[C@@H](O)[C@@H]2[C@H](CC[C@]3(C)[C@@H]([C@H](C)CCNC(=O)OC4CCC4)CC[C@@H]23)[C@@]2(C)CC[C@@H](O)C[C@@H]12
stdout: 100

stdin: Request - read-out Efficacy | tested on Bile acid receptor (Homo sapiens) | compound CC[C@H]1[C@@H](O)[C@@H]2[C@H](CC[C@]3(C)[C@@H]([C@H](C)CCNS(C)(=O)=O)CC[C@@H]23)[C@@]2(C)CC[C@@H](O)C[C@@H]12
stdout: 128

----------
# assayed_system: Bile acid receptor (Homo sapiens, UniProt Q96RI1)
# Sequence (Q96RI1 whole entry): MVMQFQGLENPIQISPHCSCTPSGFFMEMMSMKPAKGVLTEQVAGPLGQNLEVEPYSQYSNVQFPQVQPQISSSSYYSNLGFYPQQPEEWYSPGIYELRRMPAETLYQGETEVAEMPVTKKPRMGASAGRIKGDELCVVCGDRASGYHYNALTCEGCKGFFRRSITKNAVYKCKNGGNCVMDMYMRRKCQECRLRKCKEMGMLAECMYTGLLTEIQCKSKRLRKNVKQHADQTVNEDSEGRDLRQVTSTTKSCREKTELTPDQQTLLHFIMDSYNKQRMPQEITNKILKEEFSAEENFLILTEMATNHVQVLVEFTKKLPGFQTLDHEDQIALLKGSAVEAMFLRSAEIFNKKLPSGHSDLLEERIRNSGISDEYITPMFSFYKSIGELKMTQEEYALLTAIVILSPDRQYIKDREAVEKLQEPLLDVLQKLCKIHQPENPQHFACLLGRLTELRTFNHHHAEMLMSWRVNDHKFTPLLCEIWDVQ
# experimental_protocol: Agonist activity at recombinant human Gal4-fused FXR expressed in CHO cells measured after 22 hrs by luciferase reporter gene assay
# Type: cell-based
measured_attribute: EC50 (nM)
Give the value, in units of nM, as a plain number.

stdin: Which EC50 reading was recorded for the compound CC[C@H]1[C@@H](O)[C@@H]2[C@H](CC[C@]3(C)[C@@H]([C@H](C)CCC(=O)NS(C)(=O)=O)CC[C@@H]23)[C@@]2(C)CC[C@@H](O)C[C@@H]12 ?
stdout: 50

----------
# experimental_protocol: Drug level in C57BL/6 mouse plasma at 10 mg/kg, po administered as single dose via gavage measured at 0.5 hrs post dose by LC-MS/MS analysis
# Assay type: ADME, organism-based
measured_attribute: concentration at 0.5 h (nM)
Give the value, in units of nM, as a plain number.

>  <smi>
CC[C@H]1[C@@H](O)[C@@H]2[C@H](CC[C@]3(C)[C@@H]([C@H](C)CCC(=O)NS(C)(=O)=O)CC[C@@H]23)[C@@]2(C)CC[C@@H](O)C[C@@H]12

>  <units_symbol>
nM

>  <value_observed>
388

$$$$

Kindly consider the entry below.
stdin: # get_value(readout='concentration at 0.5 h', item= CC[C@H]1[C@@H](O)[C@@H]2[C@H](CC[C@]3(C)[C@@H]([C@H](C)CCC(=O)O)CC[C@@H]23)[C@@]2(C)CC[C@@H](O)C[C@@H]12 )
stdout: 478

----------
# assayed_system: UniProtKB Q96RI1
# experimental_protocol: Agonist activity at recombinant human GST-tagged FXR LBD (193 to 472 residues) expressed in baculovirus-infected insect cells assessed as recruitment of biotinylated SRC1 peptide measured after 1 hr by Alphascreen assay
So basically, if EC50 comes in under 0.4 µM it's t, and if it's 0.4 µM or more it's f.

>  <compound>
CC[C@H]1[C@@H](O)[C@@H]2[C@H](CC[C@]3(C)[C@@H]([C@H](C)CCNS(=O)(=O)C4CC4)CC[C@@H]23)[C@@]2(C)CC[C@@H](O)C[C@@H]12

>  <assayed_system>
UniProtKB Q96RI1

>  <label>
t

$$$$

stdin: Below 0.4 µM on EC50? Entry CC[C@H]1[C@@H](O)[C@@H]2[C@H](CC[C@]3(C)[C@@H]([C@H](C)CCNC(=O)OC4CCCCC4)CC[C@@H]23)[C@@]2(C)CC[C@@H](O)C[C@@H]12
stdout: t

stdin: Decide: EC50 of CC[C@H]1[C@@H](O)[C@@H]2[C@H](CC[C@]3(C)[C@@H]([C@H](C)CCC(=O)O)CC[C@@H]23)[C@@]2(C)CCC(C)C[C@@H]12 (stereo partly drawn) strictly below 0.4 µM?
stdout: f

stdin: Consider the compound CC[C@H]1[C@@H](O)[C@@H]2[C@H](CC[C@]3(C)[C@@H]([C@H](C)CCNC(=O)OC)CC[C@@H]23)[C@@]2(C)CC[C@@H](O)C[C@@H]12 . Is its EC50 strictly less than 0.4 µM?
stdout: t

stdin: Is it true that EC50 reported for CC[C@H]1[C@@H](O)[C@@H]2[C@H](CC[C@]3(C)[C@@H]([C@H](C)CCC(=O)O)CC[C@@H]23)[C@@]2(C)Cc3cn[nH]c3C[C@@H]12 is less than 0.4 µM?
stdout: t

stdin: Answer whether the compound CC[C@H]1[C@@H](O)[C@@H]2[C@H](CC[C@]3(C)[C@@H]([C@H](C)CCCNC(N)=O)CC[C@@H]23)[C@@]2(C)CC[C@@H](O)C[C@@H]12 has EC50 strictly less than 0.4 µM
stdout: t

stdin: Report whether reported EC50 is lower than 0.4 µM (strictly) for CC[C@H]1[C@@H](O)[C@@H]2[C@H](CC[C@]3(C)[C@@H]([C@H](C)CCCNC(=O)N4CC[C@H](O)C4)CC[C@@H]23)[C@@]2(C)CC[C@@H](O)C[C@@H]12
stdout: t

stdin: Is EC50 strictly under 0.4 µM for the entry CC[C@H]1[C@@H](O)[C@@H]2[C@H](CC[C@]3(C)[C@@H]([C@H](C)CCNC(=O)OC4CCC4)CC[C@@H]23)[C@@]2(C)CC[C@@H](O)C[C@@H]12 ?
stdout: t

stdin: Confirm or reject: EC50 of CC[C@H]1[C@@H](O)[C@@H]2[C@H](CC[C@]3(C)[C@@H]([C@H](C)CCNC(=O)c4ccccn4)CC[C@@H]23)[C@@]2(C)CC[C@@H](O)C[C@@H]12 lies strictly below 0.4 µM
stdout: t
